# Procedure Text: recombinant barcode read abundance after kanamycin selection (control-corrected) (log10(CPM+1)); higher = more efficient recombination; sequences stand for … in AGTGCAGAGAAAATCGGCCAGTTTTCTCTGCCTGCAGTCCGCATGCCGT…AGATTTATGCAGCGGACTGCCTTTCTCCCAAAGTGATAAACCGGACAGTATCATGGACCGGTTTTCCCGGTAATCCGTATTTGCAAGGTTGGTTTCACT; site = the 11-nt target;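 further: IS621 recombinase and bridge RNA in Escherichia coli cells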
Give 1 when the value for recombinant barcode read abundance (log10) is at least 0.6. Give 0 when it is less.

Exercise: Kindly determine if recombinant barcode read abundance (log10) recorded for GGGGAATCTTGGGTTCTAACCTGTTGCAT (site GGGGAATCTAT) is above or exactly 0.6.
Key: 1

Exercise: Please indicate if the recorded recombinant barcode read abundance (log10) for AGGCTTACTTGGGTTCTAACCTGTTGCAG (site AGGCTTACTCT) meets or exceeds 0.6.
Key: 1

Exercise: Kindly determine if recombinant barcode read abundance (log10) recorded for TGTCAACCTTGGGTTCTAACCTGTTGCGT (site TGTCAACCTAC) is above or exactly 0.6.
Key: 1

Exercise: Does recombinant barcode read abundance (log10) meet or surpass 0.6 for CTTTAATCTTGGGTTCTAACCTGTTGCCT (site CTTGAATCTAG) ?
Key: 0

Exercise: Is it the case that CAAGATGCTTGGGTTCTAACCTGTTGCCT (site CAAGATGCTAG) has recombinant barcode read abundance (log10) reaching or exceeding 0.6?
Key: 1

Exercise: API: above_or_equal(metric=recombinant barcode read abundance (log10), cutoff=0.6) for item ATCTACTCTTGGGTTCTAACCTGTTGCCT (site ATATACTCTCG)
Key: 0

Exercise: I'd appreciate it if you could say whether GGATAGACTTGGGTTCTAACCTGTTGCGT (site GGATACACTAC) has recombinant barcode read abundance (log10) at least equal to 0.6.
Key: 0

Exercise: Check if recombinant barcode read abundance (log10) >= 0.6 (inclusive). Item: CTTTGAGCTTGGGTTCTAACCTGTTGCAT (site CTTTGAGCTAT)
Key: 1

Exercise: Does recombinant barcode read abundance (log10) meet or surpass 0.6 for GACTGAGCTTGGGTTCTAACCTGTTGCGT (site GGCTGAGCTAG) ?
Key: 0

Exercise: Record ATAACTACTTGGGTTCTAACCTGTTGCCA (site ATAACTACTTG) ; criterion: recombinant barcode read abundance (log10) no lower than 0.6. Met?
Key: 0
